target: Kallikrein-1 (Homo sapiens, UniProt P06870)
Sequence (P06870 whole entry): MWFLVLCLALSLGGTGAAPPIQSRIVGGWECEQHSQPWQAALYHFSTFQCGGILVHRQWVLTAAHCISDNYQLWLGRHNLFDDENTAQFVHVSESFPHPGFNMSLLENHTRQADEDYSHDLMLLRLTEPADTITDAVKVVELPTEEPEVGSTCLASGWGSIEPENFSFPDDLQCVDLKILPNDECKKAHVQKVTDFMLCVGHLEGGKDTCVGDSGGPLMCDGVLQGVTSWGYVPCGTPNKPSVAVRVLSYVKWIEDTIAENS
pIC50: −log10 of the molar value.
# binarize pIC50: threshold 5 inclusive, high side Met, low side Not met

cpd smiles: CC(C)(C)c1ccc(O)c(C(=O)Nc2ccc(CN)cc2)c1.Cl
discrete label: Not met
//
cpd smiles: COc1ccc2c(O)c(C(=O)Nc3ccc(CN)cc3)ccc2c1
discrete label: Not met
//
cpd smiles: Cc1ccc(C(=O)Nc2ccc(CN)cc2)c(O)c1.Cl
discrete label: Not met
//
cpd smiles: Cl.NCc1ccc(NC(=O)c2ccc3ccccc3c2O)cc1
discrete label: Not met
//
cpd smiles: Cl.NCc1ccc(NC(=O)c2cc3ccccc3cc2O)cc1
discrete label: Met

###

target: Caspase-6 (Homo sapiens) (UniProt P55212); assay: Inhibition of Caspase-6 (unknown origin) assessed as inhibition of release of AMC fluorescent product using Ac-VEID-AMC as substrate at 10 uM incubated for 30 mins by microplate reader relative to control
Sequence (P55212 24-179 limits assumed): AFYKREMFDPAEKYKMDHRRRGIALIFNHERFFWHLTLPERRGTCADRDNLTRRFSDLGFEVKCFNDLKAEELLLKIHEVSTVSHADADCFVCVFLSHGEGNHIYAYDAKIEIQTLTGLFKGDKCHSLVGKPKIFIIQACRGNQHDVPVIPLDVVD
Sequence (P55212 194-293 limits assumed): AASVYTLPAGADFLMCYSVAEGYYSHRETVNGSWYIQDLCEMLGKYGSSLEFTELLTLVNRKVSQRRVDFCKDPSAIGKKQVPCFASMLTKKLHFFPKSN
Reported inhibition is given for each of the following molecules.

cpd smiles: CC(C)c1ccc(C(=O)Nc2ccc(CN)cc2)c(O)c1
inhibition [%]: 12
--
cpd smiles: Cc1ccc2ccc(C(=O)Nc3ccc(CN)cc3)c(O)c2c1
inhibition [%]: 31
--
cpd smiles: Cl.NCc1ccc(NC(=O)c2cc3ccccc3cc2O)cc1
inhibition [%]: 40
--
cpd smiles: Cl.NCc1ccc(NC(=O)c2ccc3ccccc3c2O)cc1
inhibition [%]: 56
--
cpd smiles: Cc1ccc(C(=O)Nc2ccc(CN)cc2)c(O)c1.Cl
inhibition [%]: 5
--
cpd smiles: CC(C)(C)c1ccc(O)c(C(=O)Nc2ccc(CN)cc2)c1.Cl
inhibition [%]: 13
--
cpd smiles: COc1ccc2c(O)c(C(=O)Nc3ccc(CN)cc3)ccc2c1
inhibition [%]: 70

###

system: Prothrombin/thrombin; assay: Inhibition of Thrombin (unknown origin) assessed as inhibition of release of AMC fluorescent product using […] as substrate at 10 uM incubated for 30 mins by microplate reader relative to control; details: Homo sapiens
outcome measure: inhibition (%)

cpd smiles: Cc1ccc(C(=O)Nc2ccc(CN)cc2)c(O)c1.Cl
outcome measure: inhibition
endpoint result: 0
--
cpd smiles: Cl.NCc1ccc(NC(=O)c2ccc3ccccc3c2O)cc1
outcome measure: inhibition
endpoint result: 5
--
cpd smiles: Cc1ccc2ccc(C(=O)Nc3ccc(CN)cc3)c(O)c2c1
outcome measure: inhibition
endpoint result: 6
--
cpd smiles: CC(C)(C)c1ccc(O)c(C(=O)Nc2ccc(CN)cc2)c1.Cl
outcome measure: inhibition
endpoint result: 2
--
cpd smiles: CC(C)c1ccc(C(=O)Nc2ccc(CN)cc2)c(O)c1
outcome measure: inhibition
endpoint result: 32

###

Observed Ki, system Plasminogen (Homo sapiens, UniProt P00747).
outcome measure: Ki (nM)

cpd smiles: Cl.NCc1ccc(NC(=O)c2cc3ccccc3cc2O)cc1
assayed target: Plasminogen (Homo sapiens, UniProt P00747)
Sequence (P00747 97-580 limits assumed): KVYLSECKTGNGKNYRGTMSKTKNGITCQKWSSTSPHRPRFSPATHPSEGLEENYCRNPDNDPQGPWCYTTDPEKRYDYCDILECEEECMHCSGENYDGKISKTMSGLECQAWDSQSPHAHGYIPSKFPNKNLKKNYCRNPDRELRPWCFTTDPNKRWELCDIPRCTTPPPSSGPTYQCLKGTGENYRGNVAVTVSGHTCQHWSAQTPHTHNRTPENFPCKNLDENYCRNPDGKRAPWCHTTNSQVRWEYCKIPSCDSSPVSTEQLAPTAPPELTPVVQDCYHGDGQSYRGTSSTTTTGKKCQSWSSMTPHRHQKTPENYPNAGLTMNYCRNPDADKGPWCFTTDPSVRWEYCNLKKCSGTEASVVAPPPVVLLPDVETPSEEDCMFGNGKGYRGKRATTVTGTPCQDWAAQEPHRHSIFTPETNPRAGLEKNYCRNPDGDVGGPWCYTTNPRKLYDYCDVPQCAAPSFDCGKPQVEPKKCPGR
Sequence (P00747 581-810 limits assumed): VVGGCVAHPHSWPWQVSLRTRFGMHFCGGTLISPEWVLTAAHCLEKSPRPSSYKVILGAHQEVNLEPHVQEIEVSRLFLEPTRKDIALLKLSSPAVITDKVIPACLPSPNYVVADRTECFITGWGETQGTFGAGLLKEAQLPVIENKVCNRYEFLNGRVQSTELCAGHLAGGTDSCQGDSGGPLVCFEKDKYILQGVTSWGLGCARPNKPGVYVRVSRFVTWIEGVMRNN
outcome measure: Ki
endpoint result: 1300
//
cpd smiles: Cl.NCc1ccc(NC(=O)c2ccc3ccccc3c2O)cc1
assayed target: Plasminogen (Homo sapiens, UniProt P00747)
outcome measure: Ki
endpoint result: 1500

###

biological target: Trypsin-3 (Homo sapiens); test: Inhibition of Trypsin 3 (unknown origin) assessed as inhibition of release of AMC fluorescent product using […] as substrate at 10 uM incubated for 30 mins by microplate reader relative to control
# binarize inhibition: threshold 30% inclusive, high side 1.0, low side 0.0

cpd smiles: Cl.NCc1ccc(NC(=O)c2cc3ccccc3cc2O)cc1
discrete label: 1.0
--
cpd smiles: Cc1ccc2ccc(C(=O)Nc3ccc(CN)cc3)c(O)c2c1
discrete label: 0.0
--
cpd smiles: Cc1ccc(C(=O)Nc2ccc(CN)cc2)c(O)c1.Cl
discrete label: 0.0
--
cpd smiles: CC(C)(C)c1ccc(O)c(C(=O)Nc2ccc(CN)cc2)c1.Cl
discrete label: 0.0
--
cpd smiles: CC(C)c1ccc(C(=O)Nc2ccc(CN)cc2)c(O)c1
discrete label: 1.0
--
cpd smiles: COc1ccc2c(O)c(C(=O)Nc3ccc(CN)cc3)ccc2c1
discrete label: 1.0

###

Reported inhibition is given for each of the following compounds.
target: Kallikrein-13 (Homo sapiens); assay: Inhibition of KLK13 (unknown origin) assessed as inhibition of release of AMC fluorescent product using H-VPR-AMC as substrate at 10 uM incubated for 30 mins by microplate reader relative to control
outcome measure: inhibition (%)

cpd smiles: Cl.NCc1ccc(NC(=O)c2cc3ccccc3cc2O)cc1
outcome measure: inhibition
endpoint result: 19

cpd smiles: CC(C)c1ccc(C(=O)Nc2ccc(CN)cc2)c(O)c1
outcome measure: inhibition
endpoint result: 15

cpd smiles: COc1ccc2c(O)c(C(=O)Nc3ccc(CN)cc3)ccc2c1
outcome measure: inhibition
endpoint result: 0

cpd smiles: Cc1ccc(C(=O)Nc2ccc(CN)cc2)c(O)c1.Cl
outcome measure: inhibition
endpoint result: 10

cpd smiles: CC(C)(C)c1ccc(O)c(C(=O)Nc2ccc(CN)cc2)c1.Cl
outcome measure: inhibition
endpoint result: 5

cpd smiles: Cl.NCc1ccc(NC(=O)c2ccc3ccccc3c2O)cc1
outcome measure: inhibition
endpoint result: 2

cpd smiles: Cc1ccc2ccc(C(=O)Nc3ccc(CN)cc3)c(O)c2c1
outcome measure: inhibition
endpoint result: 12

###

experiment: Metabolic stability in human liver microsomes assessed as half life; assay type: ADME, Microsome
Reported half-life is given for each of the following compounds.

cpd smiles: Cl.NCc1ccc(NC(=O)c2cc3ccccc3cc2O)cc1
half-life: > 2 h
--
cpd smiles: Cc1ccc(C(=O)Nc2ccc(CN)cc2)c(O)c1.Cl
half-life: > 2 h

###

biological target: Caspase-2 (Homo sapiens) (UniProt P42575); assay: Inhibition of Caspase-2 (unknown origin) assessed as inhibition of release of AMC fluorescent product using Ac-VDVAD-AMC as substrate at 10 uM incubated for 30 mins by microplate reader relative to control
Sequence (P42575 170-325 limits assumed): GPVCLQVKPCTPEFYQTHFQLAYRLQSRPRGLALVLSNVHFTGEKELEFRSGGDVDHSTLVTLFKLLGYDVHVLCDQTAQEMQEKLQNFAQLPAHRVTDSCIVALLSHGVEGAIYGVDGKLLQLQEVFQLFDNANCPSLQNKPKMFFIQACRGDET
Sequence (P42575 334-452 limits assumed): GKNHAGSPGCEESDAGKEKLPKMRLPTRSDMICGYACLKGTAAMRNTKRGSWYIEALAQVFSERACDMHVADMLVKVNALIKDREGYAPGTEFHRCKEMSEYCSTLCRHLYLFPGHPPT

cpd smiles: CC(C)(C)c1ccc(O)c(C(=O)Nc2ccc(CN)cc2)c1.Cl
inhibition / %: 5
//
cpd smiles: COc1ccc2c(O)c(C(=O)Nc3ccc(CN)cc3)ccc2c1
inhibition / %: 14
//
cpd smiles: Cl.NCc1ccc(NC(=O)c2cc3ccccc3cc2O)cc1
inhibition / %: 4
//
cpd smiles: Cc1ccc2ccc(C(=O)Nc3ccc(CN)cc3)c(O)c2c1
inhibition / %: 8
//
cpd smiles: Cl.NCc1ccc(NC(=O)c2ccc3ccccc3c2O)cc1
inhibition / %: 30
//
cpd smiles: Cc1ccc(C(=O)Nc2ccc(CN)cc2)c(O)c1.Cl
inhibition / %: 0
//
cpd smiles: CC(C)c1ccc(C(=O)Nc2ccc(CN)cc2)c(O)c1
inhibition / %: 15

###

Reported inhibition is given for each of the following compounds.
biological target: Tissue-type plasminogen activator (Homo sapiens); experiment: Inhibition of tPA (unknown origin) assessed as inhibition of release of AMC fluorescent product using Z-GGR-AMC as substrate at 10 uM incubated for 30 mins by microplate reader relative to control

cpd smiles: CC(C)c1ccc(C(=O)Nc2ccc(CN)cc2)c(O)c1
inhibition, %: 6
//
cpd smiles: Cc1ccc(C(=O)Nc2ccc(CN)cc2)c(O)c1.Cl
inhibition, %: 0
//
cpd smiles: CC(C)(C)c1ccc(O)c(C(=O)Nc2ccc(CN)cc2)c1.Cl
inhibition, %: 11
//
cpd smiles: COc1ccc2c(O)c(C(=O)Nc3ccc(CN)cc3)ccc2c1
inhibition, %: 10
//
cpd smiles: Cl.NCc1ccc(NC(=O)c2ccc3ccccc3c2O)cc1
inhibition, %: 18
//
cpd smiles: Cc1ccc2ccc(C(=O)Nc3ccc(CN)cc3)c(O)c2c1
inhibition, %: 9
//
cpd smiles: Cl.NCc1ccc(NC(=O)c2cc3ccccc3cc2O)cc1
inhibition, %: 6

###

molecular target: Procathepsin L (Homo sapiens) (UniProt P07711); test: Inhibition of Cathepsin L (unknown origin) assessed as inhibition of release of AMC fluorescent product using Z-LR-AMC as substrate at 10 uM incubated for 30 mins by microplate reader relative to control
Sequence (P07711 114-333 limits assumed): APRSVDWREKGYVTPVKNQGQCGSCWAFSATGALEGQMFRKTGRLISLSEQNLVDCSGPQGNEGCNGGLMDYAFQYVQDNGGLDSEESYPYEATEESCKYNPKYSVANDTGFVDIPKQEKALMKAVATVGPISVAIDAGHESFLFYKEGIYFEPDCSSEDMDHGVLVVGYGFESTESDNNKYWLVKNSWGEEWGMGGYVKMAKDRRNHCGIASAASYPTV
outcome measure: inhibition (%)

cpd smiles: CC(C)(C)c1ccc(O)c(C(=O)Nc2ccc(CN)cc2)c1.Cl
assayed target: Procathepsin L (Homo sapiens) (UniProt P07711)
unit of measurement: %
endpoint result: 20
//
cpd smiles: CC(C)c1ccc(C(=O)Nc2ccc(CN)cc2)c(O)c1
assayed target: Procathepsin L (Homo sapiens) (UniProt P07711)
unit of measurement: %
endpoint result: 1
//
cpd smiles: Cl.NCc1ccc(NC(=O)c2cc3ccccc3cc2O)cc1
assayed target: Procathepsin L (Homo sapiens) (UniProt P07711)
unit of measurement: %
endpoint result: 25
//
cpd smiles: Cc1ccc2ccc(C(=O)Nc3ccc(CN)cc3)c(O)c2c1
assayed target: Procathepsin L (Homo sapiens) (UniProt P07711)
unit of measurement: %
endpoint result: 27
//
cpd smiles: Cc1ccc(C(=O)Nc2ccc(CN)cc2)c(O)c1.Cl
assayed target: Procathepsin L (Homo sapiens) (UniProt P07711)
unit of measurement: %
endpoint result: 32
//
cpd smiles: COc1ccc2c(O)c(C(=O)Nc3ccc(CN)cc3)ccc2c1
assayed target: Procathepsin L (Homo sapiens) (UniProt P07711)
unit of measurement: %
endpoint result: 28
//
cpd smiles: Cl.NCc1ccc(NC(=O)c2ccc3ccccc3c2O)cc1
assayed target: Procathepsin L (Homo sapiens) (UniProt P07711)
unit of measurement: %
endpoint result: 30
